# targetOfAssay: T1, recombinant human PLVAP51-442 protein (extracellular domain, His tag removed by thrombin) (human, UniProt Q9BX97 51-442)
# T1 construct: also called recombinant PLVAP protein; recombinant PLVAP
# T1 sequence: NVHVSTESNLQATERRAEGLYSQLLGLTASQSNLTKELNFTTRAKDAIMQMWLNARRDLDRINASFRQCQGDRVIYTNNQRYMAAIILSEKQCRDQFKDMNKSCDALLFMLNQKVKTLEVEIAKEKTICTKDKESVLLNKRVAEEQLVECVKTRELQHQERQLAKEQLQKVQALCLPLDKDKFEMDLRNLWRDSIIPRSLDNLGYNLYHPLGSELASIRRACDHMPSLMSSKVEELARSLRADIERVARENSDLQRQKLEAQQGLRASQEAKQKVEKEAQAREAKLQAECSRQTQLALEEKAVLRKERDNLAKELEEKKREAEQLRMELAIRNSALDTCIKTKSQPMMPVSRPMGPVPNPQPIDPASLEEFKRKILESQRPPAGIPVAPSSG
# assayProtocol: competition ELISA on coated recombinant PLVAP; competitor biotinylated murine KFCC-GY5
recordedEndpoint: IC50 (ratio compared to GY5 mAb)
Answer as a number with no unit attached.

Ask | Quick one: give measured IC50 (ratio compared to GY5 mAb) for humanized KFCC-GY5 antibody CSR02-VH4/VK3 (antibody, human IgG4, V domains shown, also called VH4/VK3 (GY5 variant); VH4/VK3 IgG4) VH: QVQLVQSGSELKKPGASVKVSCKASGYTFTSNYINWVRQAPGQGLEWIGNIYPSDGFTNYNQKFKDRVTITVDKSTSTAYMELSSLRSEDTAVYYCTRNFDVWGQGTTVTVSS VL: DVVMTQSPLSLPVTLGQPASISCRSSQSLVHSNGNTYLQWYLQKPGQSPQLLIYTVSNRFSGVPDRFSGSGSGPDFTLKISRVEAEDVGVYYCSQSTHVPFTFGQGTKLEIKR
Reply | 1.13

The values you see were collected from patent US20150017171A1.
